Listed here: items and their measured response, % of control.
Target desc: 5-hydroxytryptamine receptor 1A (Rattus norvegicus)
Sequence (whole entry): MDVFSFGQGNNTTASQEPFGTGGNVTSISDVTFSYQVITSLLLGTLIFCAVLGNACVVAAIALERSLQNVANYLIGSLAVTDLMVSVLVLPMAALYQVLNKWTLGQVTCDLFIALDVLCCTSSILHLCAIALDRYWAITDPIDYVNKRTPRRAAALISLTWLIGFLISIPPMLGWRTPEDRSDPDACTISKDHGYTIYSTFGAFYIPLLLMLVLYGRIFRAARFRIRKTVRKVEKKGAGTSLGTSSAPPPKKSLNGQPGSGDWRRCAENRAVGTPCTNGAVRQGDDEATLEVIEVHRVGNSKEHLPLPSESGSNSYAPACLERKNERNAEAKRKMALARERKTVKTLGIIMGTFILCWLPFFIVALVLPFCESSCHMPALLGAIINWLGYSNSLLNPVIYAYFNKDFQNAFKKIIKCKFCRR
Assay procedure: Effect on 5-hydroxytryptamine 1A receptor mediated inhibition of VIP-stimulated cAMP production at dose of 10 uM
Type: functional
Protocol conditions: values are per cent of control
Just the number plus its unit, please.

Example entries begin here.
CCCN(CCC)[C@@H]1CCc2c(F)ccc(-c3cccs3)c2C1; 79%
CCCN(CCC)[C@@H]1CCc2c(F)ccc(OS(=O)(=O)C(F)(F)F)c2C1; 61%
O=C1CC2(CCCC2)CC(=O)N1CCCCN1CCN(c2ncccn2)CC1; 73%
CCCN(CCC)[C@H]1CCc2cccc(O)c2C1; 62%
CCCN(CCC)[C@@H]1CCc2cccc(O)c2C1; 47%

GET /values?item= CCCN(CCC)[C@H]1CCc2c(F)ccc(-c3cccs3)c2C1 &system= 5-hydroxytryptamine receptor 1A (Rattus norvegicus) returns response, % of control: 88%

# lookup: CCCN(CCC)[C@@H]1CCc2c(F)ccc(C(C)=O)c2C1 on 5-hydroxytryptamine receptor 1A (Rattus norvegicus), response, % of control = 61%

Entry CCCN(CCC)[C@@H]1CCc2c(F)ccc(O)c2C1 , 5-hydroxytryptamine receptor 1A (Rattus norvegicus) data, response, % of control value: 61%

Measured response, % of control (5-hydroxytryptamine receptor 1A (Rattus norvegicus)), entry CCCN(CCCCN1C(=O)CC2(CCCC2)CC1=O)[C@H]1CCc2c(F)ccc(C(C)=O)c2C1 : 109%

----------
Target desc: 5-hydroxytryptamine receptor 1A (Rattus norvegicus)
Sequence (whole entry): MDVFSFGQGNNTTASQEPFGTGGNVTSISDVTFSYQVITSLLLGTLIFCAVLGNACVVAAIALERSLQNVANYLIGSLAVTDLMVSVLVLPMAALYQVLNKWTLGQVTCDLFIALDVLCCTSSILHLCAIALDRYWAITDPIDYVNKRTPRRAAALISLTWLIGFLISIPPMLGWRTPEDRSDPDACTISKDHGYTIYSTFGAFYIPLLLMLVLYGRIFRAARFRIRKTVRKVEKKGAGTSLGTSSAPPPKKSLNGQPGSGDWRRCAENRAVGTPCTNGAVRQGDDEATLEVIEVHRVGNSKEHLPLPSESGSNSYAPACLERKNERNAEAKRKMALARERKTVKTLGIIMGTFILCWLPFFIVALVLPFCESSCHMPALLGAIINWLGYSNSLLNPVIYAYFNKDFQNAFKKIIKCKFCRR
Assay procedure: Effect on 5-hydroxytryptamine 1A receptor mediated inhibition of VIP-stimulated cAMP production at dose of 0.05 uM
Type: functional
Protocol conditions: values are per cent of control
Attribute measured: response, % of control (%)
Give the value in % but do not write % after it.

Solved cases (6 shown):
CCCN(CCCCN1C(=O)CC2(CCCC2)CC1=O)[C@H]1CCc2c(F)ccc(C(C)=O)c2C1; 104
CCCN(CCCCN1C(=O)CC2(CCCC2)CC1=O)[C@@H]1CCc2c(F)ccc(OC)c2C1; 62
CCCN(CCCCN1C(=O)CC2(CCCC2)CC1=O)[C@@H]1CCc2c(F)ccc(O)c2C1; 72
CCCN(CCCCN1C(=O)CC2(CCCC2)CC1=O)[C@@H]1CCc2c(F)ccc(C(C)=O)c2C1; 50
CCCN(CCCCN1C(=O)CC2(CCCC2)CC1=O)[C@H]1CCc2c(F)ccc(OS(=O)(=O)C(F)(F)F)c2C1; 98
CCCN(CCCCN1C(=O)CC2(CCCC2)CC1=O)[C@@H]1CCc2c(F)ccc(OS(=O)(=O)C(F)(F)F)c2C1; 98

Next, consider the following molecule.
Sure, the documented response, % of control for CCCN(CCCCN1C(=O)CC2(CCCC2)CC1=O)[C@H]1CCc2c(F)ccc(O)c2C1 is 95

----------
Target desc: 5-hydroxytryptamine receptor 1A (Rattus norvegicus)
Assay procedure: Effect on 5-hydroxytryptamine 1A receptor mediated inhibition of VIP-stimulated cAMP production at dose of 30 uM
Assay type: functional
Protocol conditions: values are per cent of control
Attribute measured: response, % of control (%)
Quick note: give the figure in %, leave out the unit.

Reference set, count: 3
CCCN(CCC)[C@@H]1CCc2c(F)ccc(-c3cccs3)c2C1; 61
CCCN(CCC)[C@@H]1CCc2c(F)ccc(-c3ccco3)c2C1; 79
CCCN(CCC)[C@@H]1CCc2c(F)ccc(C(C)=O)c2C1; 62

Attention now shifts to the item below.
Query CCCN(CCC)[C@@H]1CCc2c(F)ccc(OS(=O)(=O)C(F)(F)F)c2C1 yields response, % of control of 48

----------
Target desc: 5-hydroxytryptamine receptor 1A (Rattus norvegicus) (UniProt P19327)
Sequence (whole entry): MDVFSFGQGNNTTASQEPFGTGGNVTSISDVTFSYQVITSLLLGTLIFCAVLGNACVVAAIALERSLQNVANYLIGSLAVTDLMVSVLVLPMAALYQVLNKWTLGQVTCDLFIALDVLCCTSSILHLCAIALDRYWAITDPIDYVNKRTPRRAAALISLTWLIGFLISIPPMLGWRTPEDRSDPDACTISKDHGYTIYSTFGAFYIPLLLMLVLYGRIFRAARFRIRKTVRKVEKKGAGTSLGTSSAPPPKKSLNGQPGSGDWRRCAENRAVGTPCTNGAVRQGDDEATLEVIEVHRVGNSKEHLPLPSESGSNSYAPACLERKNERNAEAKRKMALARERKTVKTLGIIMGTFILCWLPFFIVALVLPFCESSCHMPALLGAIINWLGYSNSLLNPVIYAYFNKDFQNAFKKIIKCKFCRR
Assay procedure: Effect on 5-hydroxytryptamine 1A receptor mediated inhibition of VIP-stimulated cAMP production at dose of 0.1 uM + 1 uM 5-HT.
Assay type: functional
Protocol conditions: values are per cent of control
response, % of control strictly under 60% means Fulfilled; at 60% or over means Not fulfilled.

Worked set:
CCCN(CCC)[C@@H]1CCc2cccc(O)c2C1; Fulfilled
O=C1CC2(CCCC2)CC(=O)N1CCCCN1CCN(c2ncccn2)CC1; Fulfilled
CCCN(CCC)[C@H]1CCc2c(F)ccc(-c3ccco3)c2C1; Fulfilled
CCCN(CCC)[C@H]1CCc2c(F)ccc(O)c2C1; Fulfilled
CCCN(CCCCN1C(=O)CC2(CCCC2)CC1=O)[C@@H]1CCc2c(F)ccc(O)c2C1; Not fulfilled

(Q) In plain terms, does CCCN(CCC)[C@H]1CCc2c(F)ccc(C(C)=O)c2C1 come in under 60% for response, % of control?
(A) Fulfilled

(Q) Please let me know if CCCN(CCC)[C@@H]1CCc2c(F)ccc(O)c2C1 shows response, % of control below 60%.
(A) Fulfilled

(Q) In plain terms, does CCCN(CCCCN1C(=O)CC2(CCCC2)CC1=O)[C@@H]1CCc2c(F)ccc(OS(=O)(=O)C(F)(F)F)c2C1 come in under 60% for response, % of control?
(A) Not fulfilled

----------
Property: response, % of control; scope: individual compounds
Target desc: UniProtKB P19327
Assay procedure: Effect on 5-hydroxytryptamine 1A receptor mediated inhibition of VIP-stimulated cAMP production at dose of 1 uM+ 50 uM 5-HT.
Assay type: functional
Protocol conditions: values are per cent of control
Your answer should be a plain number; it is taken to be in %.

CCCN(CCCCN1C(=O)CC2(CCCC2)CC1=O)[C@H]1CCc2c(F)ccc(OC)c2C1; 41

Entry CCCN(CCCCN1C(=O)CC2(CCCC2)CC1=O)[C@@H]1CCc2c(F)ccc(OS(=O)(=O)C(F)(F)F)c2C1 ; assay system UniProtKB P19327; response, % of control recorded at 51

Fill in: UniProtKB P19327 response, % of control for CCCN(CCCCN1C(=O)CC2(CCCC2)CC1=O)[C@@H]1CCc2c(F)ccc(C(C)=O)c2C1 = 55

For the compound CCCN(CCC)[C@@H]1CCc2c(F)ccc(C(C)=O)c2C1 , the measured response, % of control on UniProtKB P19327 was 63

Entry CCCN(CCCCN1C(=O)CC2(CCCC2)CC1=O)[C@@H]1CCc2c(F)ccc(OC)c2C1 : response, % of control on UniProtKB P19327 = 40

Numbers sourced from ChEMBL document CHEMBL1129431.
